- measuredTarget: rat brain A1 receptor (Rattus norvegicus, UniProt P25099)
- Construct: Rat cerebral cortical and striatal membranes were prepared; from tissue; host or cells: rat brain membranes (cerebral cortical)
- Sequence (P25099 1-326): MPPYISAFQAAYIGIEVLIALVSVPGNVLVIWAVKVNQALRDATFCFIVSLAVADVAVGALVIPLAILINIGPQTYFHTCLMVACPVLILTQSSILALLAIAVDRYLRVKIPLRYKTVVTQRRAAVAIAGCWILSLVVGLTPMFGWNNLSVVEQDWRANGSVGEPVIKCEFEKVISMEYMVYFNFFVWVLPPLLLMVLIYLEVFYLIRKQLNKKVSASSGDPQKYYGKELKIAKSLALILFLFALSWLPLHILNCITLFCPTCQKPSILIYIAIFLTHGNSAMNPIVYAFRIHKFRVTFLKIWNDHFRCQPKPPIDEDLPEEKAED
- measurementProtocol: Displacement of [^3 H]PIA binding at A1 receptors
pKi: −log10 of the molar value.
parameter: pKi

These solved cases illustrate the format of a correct answer.
compound: CCCNc1nc(NCc2cccc(I)c2)c2ncn(C)c2n1
measuredValue: 6.48
//
compound: O[C@@H]1[C@H](O)CO[C@H]1n1cnc2c(NCc3cccc(I)c3)nc(Cl)nc21
measuredValue: 6.09

(P) CCCCCCNc1nc(NCc2cccc(I)c2)c2ncn(C)c2n1
(Q) Clc1nc(NCc2cccc(I)c2)c2ncn(C3CCCO3)c2n1 (centres unmarked)
(R) CNc1nc(NCc2cccc(I)c2)c2ncn([C@@H]3OC[C@@H](O)[C@H]3O)c2n1
Hey, quick one: sort these by pKi, largest value first please. A ranking is expressed here by listing the labels in the requested order. Q, R, P
(Q: 6.76, R: 6.18, P: 5.35)
